Listing of recorded folding stability dG unfold by entry.
test: folding stability dG unfold from trypsin proteolysis; higher = more stable

monomer-sequence: SFIRKDPDGTYVIMGRMPPNMPIEEFLENLPGFKIKDVEYQPDPENGYWYFTLVITPRGKVKIDWVPMGDSA [r9_238_TrROS]
measurement-unit: kcal/mol
folding stability dG unfold: 2
--
monomer-sequence: SAGGSAGGSAGMPEVEVEVKIIKFDKEKNVFVIEVTDKKTGKRVTLTIKNGKIELKVEEPSAGGSAGGSAGG [r17_370_TrROS_Hall]
measurement-unit: kcal/mol
folding stability dG unfold: 2.85
--
monomer-sequence: SAGGSADELVVRLRVRDPRTERPLEIDLPVPASLTPEEAIARAERLAAAFRSLGLETEVEVEPVPRSAGGSA [r15_268_TrMRF]
measurement-unit: kcal/mol
folding stability dG unfold: 1.45
--
monomer-sequence: MEEVTIEIEVKGLSEEEIKELAEKLAEELREAGYEVEITKVEVLPDGSVKVTIKVRKGMSEEELKKLLEKLS [r1_485_TrROS_Hall]
measurement-unit: kcal/mol
folding stability dG unfold: 3.65
